- System: OVTOKO (Ovarian Carcinoma);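 also: after 72 h of two-drug dosing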
- assayName: Bliss excess, mean over the matrix (fraction); higher = more synergy
observable: Bliss excess
Reply: number alone, nothing else.

molecule	observable	measuredNumber
Cn1cnc2c(F)c(Nc3ccc(Br)cc3Cl)c(C(=O)NOCCO)cc21 [Selumetinib] + C=CCn1c(=O)c2cnc(Nc3ccc(N4CCN(C)CC4)cc3)nc2n1-c1cccc(C(C)(C)O)n1 [AZD1775] (first compound max 10 µM, partner max 1 µM)	Bliss excess	-0.114
Cc1cc2ncnn2cc1Nc1ncc2c(n1)n(C1CCOCC1)c(=O)n2C [AZD7648] + C[C@@H]1COCCN1C2=NC(=NC(=C2)C3(CC3)[S@](=N)(=O)C)C4=C5C=CNC5=NC=C4 [AZD6738] (first compound max 10 µM, 7x7, partner max 10 µM)	Bliss excess	0.0118

// lookup Bliss excess for Cn1cnc2c(F)c(Nc3ccc(Br)cc3Cl)c(C(=O)NOCCO)cc21 [Selumetinib] + CCN(CCO)CCCOc1ccc2c(Nc3cc(CC(=O)Nc4cccc(F)c4)[nH]n3)ncnc2c1 [AZD2811] (first compound max 10 µM, 7x7, partner max 1 µM)
-0.0303

// lookup Bliss excess for CCN(CCO)CCCOc1ccc2c(Nc3cc(CC(=O)Nc4cccc(F)c4)[nH]n3)ncnc2c1 [AZD2811] + O=C(c1cc(Cc2n[nH]c(=O)c3ccccc23)ccc1F)N1CCN(C(=O)C2CC2)CC1 [Olaparib] (first compound max 1 µM, 7x7, partner max 10 µM)
-0.012
